Values compiled from ChEMBL document CHEMBL2034905.

Would you mind telling me the reported MIC of each entry?
# System: Mycobacterium tuberculosis
# experiment-description: Antituberculosis activity against Mycobacterium tuberculosis H37Rv by BACTEC MGIT method
# Format: functional

Item O=C(CSc1nnc(Cn2cnc3ccccc32)o1)Nc1nc2ccc(F)cc2s1 has what recorded MIC?
> 6.25 µg/mL

Item CC(=O)Nc1ccc2nc(NC(=O)CSc3nnc(Cn4cnc5ccccc54)o3)sc2c1 has what recorded MIC?
> 6.25 µg/mL

Item O=C(CSc1nnc(Cn2cnc3ccccc32)o1)Nc1ccc(Cl)cc1 has what recorded MIC?
> 6.25 µg/mL

Item N#Cc1ccc(NC(=O)CSc2nnc(Cn3cnc4ccccc43)o2)cc1 has what recorded MIC?
> 6.25 µg/mL

Item O=C(CSc1nnc(Cn2cnc3ccccc32)o1)Nc1nc2ccc(Cl)cc2s1 has what recorded MIC?
> 6.25 µg/mL

Item Cc1ccc(NC(=O)CSc2nnc(Cn3cnc4ccccc43)o2)cc1 has what recorded MIC?
> 6.25 µg/mL

Item O=C(CSc1nnc(Cn2cnc3ccccc32)o1)Nc1ccc(I)cc1 has what recorded MIC?
> 6.25 µg/mL

Item O=C(CSc1nnc(Cn2cnc3ccccc32)o1)Nc1ccc(F)cc1 has what recorded MIC?
> 6.25 µg/mL

Item N#Cc1ccc2nc(NC(=O)CSc3nnc(Cn4cnc5ccccc54)o3)sc2c1 has what recorded MIC?
> 6.25 µg/mL

Item NC(=O)c1cnccn1 [PYRAZINAMIDE] has what recorded MIC?
6.25 µg/mL

Item O=C(CSc1nnc(Cn2cnc3ccccc32)o1)Nc1nc2ccc(Br)cc2s1 has what recorded MIC?
> 6.25 µg/mL

Item CO[C@H]1/C=C/O[C@@]2(C)Oc3c(C)c(O)c4c(O)c(c(/C=N/N5CCN(C)CC5)c(O)c4c3C2=O)NC(=O)/C(C)=C\C=C\[C@H](C)[C@H](O)[C@@H](C)[C@@H](O)[C@@H](C)[C@H](OC(C)=O)[C@@H]1C has what recorded MIC?
0.25 µg/mL

Item CC(=O)Nc1ccc(NC(=O)CSc2nnc(Cn3cnc4ccccc43)o2)cc1 has what recorded MIC?
> 6.25 µg/mL

Item CC[C@@H](CO)NCCN[C@@H](CC)CO has what recorded MIC?
3.12 µg/mL

Item NNC(=O)c1ccncc1 has what recorded MIC?
0.2 µg/mL

Item Cc1ccc2nc(NC(=O)CSc3nnc(Cn4cnc5ccccc54)o3)sc2c1 has what recorded MIC?
> 6.25 µg/mL
